Cited source for all entries: the supplement of paper PMC10567573

B1: KLHDC10 (parent)
chain: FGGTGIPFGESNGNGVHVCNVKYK

Variants of: B1
Experiment: protein stability index of a GFP-peptide fusion (GPS, HEK-293T) (PSI 1-6); higher = more stable;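 note: lentivirally expressed fusions sorted by FACS into six bins by GFP to DsRed ratio, PSI derived from sequencing read proportions per bin multiplied by bin number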
Conditions: c terminus: a fixed tail appended
Measured protein stability index values are reported for all entries that follow.
API note: the answer field is a bare number with no unit suffix.

Look over these answered cases.
mutation spec | numeric readout
C19T | 2.01
K22V | 2.24
K22S | 1.29
S11P | 2.3

Problem: Provide only the value of recorded protein stability index for N20D
Solution: 1.98

Problem: Provide only the value of recorded protein stability index for F1M
Solution: 4.04

Problem: Provide only the value of recorded protein stability index for I6C
Solution: 1.87

Problem: Provide only the value of recorded protein stability index for P7S
Solution: 2.14

Problem: Provide only the value of recorded protein stability index for V16W
Solution: 2.49

Problem: Provide only the value of recorded protein stability index for G3D
Solution: 2.38
